system: MS2 coat protein; experiment: apparent KD of MS2 coat protein; designed switch direction (-1 OFF switch, 1 ON switch): -1; higher = weaker reporter binding; settings: Eterna round: R95; input ligand: FMN 200 uM
quantity measured: apparent KD of MS2 coat protein (nM)
The response must be a number in nM with no trailing unit.

residues	test result
GGUAGUAUGAGUAGUCCUCAUUGAAGAGAUUGGUAAGAUACAUGAGGAUCACCCAUGUUUGAACAAGCUUUUGCUCA [JR_Sv3TOV2_Sub006] (puzzle: Sensor v3, turn-off variant 2)	141
AAGAAGCAAGGAUAUACAGAGGAGAGUAAAGCAAGAGGAGAACAUGAGGAUCACCCAUGUAGAAGGUGCAGAGA [JR_Exclu2_Sub018] (puzzle: Exclusion 2)	40.3
CAUACUCAAGUCAGGAUAUACAGUCGGAUACGGGUGUAGAAGGGACAUGAGGAUCACCCAUGUAGAGAGUAAAG [EX-4 Malc #23] (puzzle: Brourd's mod of Exclusion 4)	87
GUACAGGUAGGAUAUCGAUACAAGAACAUGAGGAUCACCCAUGUGGGUCGAUUUUCGAAGCGAGAAGGACCAAAUG [Rixeatenso] (puzzle: Exclusion 5)	406
CAAAAGGUAGGAUAUACGAAAAAAAAGGGUAGAAAAAAAACACAUGAGGAUCACCCAUGUAGAAGGACCAAAAC [salish99_ex2_r3_042] (puzzle: Exclusion 2)	95.7

Consider GGUAGUAUGAGUAGUCCUCAUUGAAGAGAUUGGUAAGAUACAUGAGGAUCACCCAUGUUUGAACAAGCUUUUGCUCU [JR_Sv3TOV2_Sub007] (puzzle: Sensor v3, turn-off variant 2) . Its measured apparent KD of MS2 coat protein is 87.1

Consider GGAAAACAUGAGGAUCACCCAUGUAAGGAUAUGCAAAAGGAUAUAGAAGGAAGAAAAAGCAGAAGGUACAAAGG [salish99-ex1_r3_099] (puzzle: Exclusion 1) . Its measured apparent KD of MS2 coat protein is 72.1

Consider CUGAGGUAGCGGUCCUAUGACAUGAGGAUCACCCAUGUACCUUGCUACGAGCUUUUUGCUCGUCUUAUAAUUCUCGG [JL Atriat mod 3] (puzzle: Sensor v3, turn-off variant 1) . Its measured apparent KD of MS2 coat protein is 466

###

test system: K4 kissing-loop RNA reporter; test: apparent KD of K4 kissing-loop reporter; higher = weaker reporter binding; details: Eterna round: R107; input ligand: tryptophan 2.4 mM;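 note: bound reporter read as fluorescence of individual clusters on recovered sequencing chips by microscopy, with normalized cluster intensities fitted with a binding model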
quantity measured: apparent KD of K4 kissing-loop reporter

> print(dat)
                                   residues                   system.name  test.result
1  GGAUCCACCAGUGAUGUUGGAGAAAACUCUAAGGAUAUGACGAAAGUCAGAAGGUGGUAGACUGGUCAAAGUCCGGUCGGAUCCA [FmnA10 U30+U66]  K4 kissing-loop RNA reporter       249 nM

Consider AAUAACUUGCAGUGAUGUUGCAAGAAAUCUCAGGAUAUCAGGAAACUGAGAAGGGAGUAUCCUGAGUAAACAUCACAUCUUAGGA [KL-SSFMN-A8] . Its measured apparent KD of K4 kissing-loop reporter is 369 nM

Consider UAAUAAAUUCCAGCUAUAUCACUCUUCGAAGGAGCGGACGAAAGUCCAGGUAGGUCGCGAAGAGUGAUGUUCUUUGCGGCGCUGG [Omei KL Arginine A Exc A v5] . Its measured apparent KD of K4 kissing-loop reporter is 111 nM

Consider AGAGUCGGCUGUGAUACCAGUCGUAUUACAACAUGUCGCAGUGAUGUUGCGAGAUAGGAUGACCCUUGGCAGCACUCAGUACGAU [Same State Theophylline B GF 8] . Its measured apparent KD of K4 kissing-loop reporter is 323 nM

Consider UUGGAGUGAUGUUCCAUAUCUUGAGCCGAAGGAGCGGCAUUAUUGCCAGGUAGGUCGCGGCAGAAGGUACCAGUGAUGUUGGAAA [Same State Arginine A GF 4] . Its measured apparent KD of K4 kissing-loop reporter is 125 nM

Consider AAGCAGUCACUCGUAACCAUCGAAGAUGGUCGAGGACCGGUACGGCCGCCACUCGGAGUGAUGUUCCGAAGACUGCAAAAUAAAA [#SwitchBubble 12] . Its measured apparent KD of K4 kissing-loop reporter is 607 nM

###

test system: MS2 coat protein; assay: apparent KD of MS2 coat protein; designed switch direction (-1 OFF switch, 1 ON switch): 1; higher = weaker reporter binding; conditions: input ligand: FMN 200 uM
quantity measured: apparent KD of MS2 coat protein (nM)
The response must be a number in nM with no trailing unit.

residues	unit info	apparent KD of MS2 coat protein
GGAAUAUGAUGUUACAUGAGGAUCACCCAUGUAGUAAUAACUAAGGAUAUCUGAAAAGGAGGAGAAGAGAAGGUAGGAUCAUAA [AK SSNG3-V2-10.1] (Eterna round: R96, puzzle: Same State NG 3)	nM	13.3

Alright, here's another sequence for you.
UAAAUAAUGUAAGGAUAUACAUGAGGAAUUCUCGUAGAAGGUACAUGACAUGAGGAUCACCCAUGUAUCGCUCAGAAGAGCGUA [Mat - Same State NG 1 - JL mod - D28] (Eterna round: R96, puzzle: Same State NG 1) on MS2 coat protein gives apparent KD of MS2 coat protein = 1660

###

tested on: MS2 coat protein; assay: apparent KD of MS2 coat protein; designed switch direction (-1 OFF switch, 1 ON switch): -1; higher = weaker reporter binding; conditions: Eterna round: R95; input ligand: FMN 200 uM
# label = yes if apparent KD of MS2 coat protein >= 40 nM else no

# count of solved cases: 9
residues	system name	assigned category
CAUGAUCUUCGGAUCAUGUACAUGAGGAUCACCCAUGUGACGAGUUACAUGAAAAACAAGCUUUUUGCUCGUCUUAU [Sensor v3 - Turn-off variant 1 - 9] (puzzle: Sensor v3, turn-off variant 1)	MS2 coat protein	yes
UUUUACUCAGGAUAUAUGAUGUGAAACAUGAGGAUCACCCAUGUAAUAUUAUGGAUGUAAAUAGAAGGGAGAUUUA [Mat - Exclusion 5 - JL mod - D16] (puzzle: Exclusion 5)	MS2 coat protein	yes
GAUUAUGCGAGCUUUAGGGACAUGAGGAUCACCCAUGUUCGUCUUAUUGGUCUGAGUGCACUAACAUACCUAAAUCU [JMF 31] (puzzle: Sensor v3, turn-off variant 1)	MS2 coat protein	no
CGUAGUCUUCGGACUACGAACAUGAGGAUCACCCAUGUAUAGAGCAGAUCUUCAUGCAAGCUUUUUGCUCGUCUUAU [Sensor v3 - turn-off variant 1 - 48] (puzzle: Sensor v3, turn-off variant 1)	MS2 coat protein	yes
GCUUUUCUUUUCCUUUCUUACAUGAGGAUCACCCAUGUUUCUUGUCGCGCUCGCGUUGCUCGUCUGUCUGUCUGUUG [salish99_TOv1_r3_079] (puzzle: Sensor v3, turn-off variant 1)	MS2 coat protein	yes
GAAGAAGAGAGAAAAGAAAACAUGAGGAUCACCCAUGUGAGAAGAUGAGGGUGUAGCAGGCUUUAUGCUCGUCUUAU (puzzle: Sensor v3, turn-off variant 1)	MS2 coat protein	no
UUAGGCGUCAUUGCUCGUCUUUUAUGGAGAUGACUGUUAACAUGAGGAUCACCCAUGUGUGUGGGAGCUUUGCAGUU [JR_SV3TOV2_Sub023] (puzzle: Sensor v3, turn-off variant 2)	MS2 coat protein	yes
GAGGAACAUGAGGAUCACCCAUGUAAGGAUAUGCAAAGCGAGGUAGUAGAAGGAGAAGGCAGAAGGUACACGGA [JR_Exclu1_Sub075] (puzzle: Exclusion 1)	MS2 coat protein	no
AGUCUGCGAGGAUAUACAUGAGGAUCACCCAUGUGCGAGAAACUAGUGAGGUCGAUUGGUAGAAGGCGCGGACA [Mat - Exclusion 3 - Mod of JL D87] (puzzle: Exclusion 3)	MS2 coat protein	no

Shift focus to the following entry.
Tell me whether apparent KD of MS2 coat protein is at least 40 nM here: UUUUAGAGAGGAUAUAUUUAGUGAAACAUGAGGAUCACCCAUGUAAUUAAAUGGAUGUAAAUAGAAGGCUCAUUUA [Mat - Exclusion 5 - JL mod - D6] (puzzle: Exclusion 5)
no

###

system: MS2 coat protein; test: apparent KD of MS2 coat protein; designed switch direction (-1 OFF switch, 1 ON switch): 1; higher = weaker reporter binding; conditions: input ligand: none
Listing: apparent KD of MS2 coat protein of selected sequences
The response must be a number in nM with no trailing unit.

residues	apparent KD of MS2 coat protein (nM)
GCGGAGAGGUAAGGAUAUCCAUGGAAAAAACAUGAGGAUCACCCAUGUAGGAAAAAAACUAGGAGGGAGAAGGUACCGGGACGC [AK SSNG2-V2-20] (Eterna round: R96, puzzle: Same State NG 2)	29.8

Consider ACAUGAGAGUGAGGAUAUAUUGUACCUACAUGUGACAUGAGGAUCACCCAUGUGGUAAGUAUGACAUAGAAGGCACAGAUAUGU [Equivalance 80 - Jieux - Same State NG 2] (Eterna round: R96, puzzle: Same State NG 2) . Its measured apparent KD of MS2 coat protein is 70.9
